Tested on: PBMC
Assay: Antiinflammatory activity in human PBMC assessed as inhibition of MIF-induced IL-6 production at 30 uM after 21 hrs by ELISA
Format: functional
Classification field: satisfied = inhibition at 30 µM at or over 3%; not satisfied = inhibition at 30 µM under 3%.

- Molecule: "COC(=O)C1(C)CC(c2ccoc2)=NO1 (stereo unspecified)"
  Class label: "not satisfied"
- Molecule: "FC(F)(F)c1cccc(-n2cc(C3=NOC(CN4CCOCC4)C3)c3ccccc32)c1 (stereo unspecified)"
  Class label: "satisfied"
- Molecule: "COC(=O)C1(C)CC(c2cn(-c3cccc(C(F)(F)F)c3)c3ccccc23)=NO1 (stereo unspecified)"
  Class label: "satisfied"

Request: Exam item: decide whether the reported inhibition at 30 µM for Fc1ccc(C2CC(c3ccoc3)=NO2)cc1 (stereo unspecified) is at least 3%.
Response: not satisfied

Request: Exam item: decide whether the reported inhibition at 30 µM for CC(C)(C)C(=O)OC1CC(c2cn(-c3cccc(C(F)(F)F)c3)c3ccccc23)=NO1 (stereo unspecified) is at least 3%.
Response: satisfied

Request: Exam item: decide whether the reported inhibition at 30 µM for FC(F)(F)c1cccc(-n2cc(C3=NOC(c4ccccc4)C3)c3ccccc32)c1 (stereo unspecified) is at least 3%.
Response: satisfied

Request: Exam item: decide whether the reported inhibition at 30 µM for OCCC1CC(c2cn(-c3cccc(C(F)(F)F)c3)c3ccccc23)=NO1 (stereo unspecified) is at least 3%.
Response: satisfied

Request: Exam item: decide whether the reported inhibition at 30 µM for COC(=O)CC1(C(=O)OC)CC(c2ccoc2)=NO1 (stereo unspecified) is at least 3%.
Response: satisfied

Request: Exam item: decide whether the reported inhibition at 30 µM for O=C1c2ccccc2C(=O)N1C1CC(c2cn(-c3cccc(C(F)(F)F)c3)c3ccccc23)=NO1 (stereo unspecified) is at least 3%.
Response: satisfied

Request: Exam item: decide whether the reported inhibition at 30 µM for COc1ccc(C2CC(c3ccoc3)=NO2)cc1 (stereo unspecified) is at least 3%.
Response: not satisfied

---

Experiment: Cytotoxicity against human PBMC assessed as cell viability measured during MIF secretion assay at 100 uM after 21 hrs by MTS assay
Type: cell-based
Settings: PBMC (peripheral blood mononuclear cells)
Readout kind: cytotoxicity at 21 h, 100 µM (%)
Express it in %; write the number only.

- Compound: "COc1ccc(C2CC(c3cn(-c4cccc(C(F)(F)F)c4)c4ccccc34)=NO2)cc1 (configuration not stated)"
  Value units: "%"
  cytotoxicity at 21 h, 100 µM: 0
- Compound: "c1ccc(C2CC(c3ccoc3)=NO2)cc1 (configuration not stated)"
  Value units: "%"
  cytotoxicity at 21 h, 100 µM: 0
- Compound: "COC(=O)CC1(C(=O)OC)CC(c2ccoc2)=NO1 (configuration not stated)"
  Value units: "%"
  cytotoxicity at 21 h, 100 µM: 7
- Compound: "OCCC1CC(c2ccoc2)=NO1 (configuration not stated)"
  Value units: "%"
  cytotoxicity at 21 h, 100 µM: 0
- Compound: "Fc1ccc(C2CC(c3cn(-c4cccc(C(F)(F)F)c4)c4ccccc34)=NO2)cc1 (configuration not stated)"
  Value units: "%"
  cytotoxicity at 21 h, 100 µM: 0
- Compound: "COC(=O)C1(C)CC(c2ccoc2)=NO1 (configuration not stated)"
  Value units: "%"
  cytotoxicity at 21 h, 100 µM: 4

Request: Entry COc1ccc(C2CC(c3ccoc3)=NO2)cc1 (configuration not stated) : reported cytotoxicity at 21 h, 100 µM = ?
Response: 0
